Give measured protein stability index for each item. Keep answers brief.
- Protocol Details: protein stability index of a GFP-peptide fusion (GPS, HEK-293T) (PSI 1-6); higher = more stable;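 also: 24-mer peptide tiles fused after GFP, lentivirally expressed, FACS-sorted into six equal bins by GFP/DsRed ratio, decoded by Illumina sequencing, PSI is the read-weighted mean bin number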
- Assay Context: treatment: DMSO; c terminus: a fixed tail appended
Reply with just the number.

Any idea what protein stability index was measured for SQIQYMNTVVSTYVTTNVSLIPPR [TMEM106C] ?
2.12

Any idea what protein stability index was measured for LLGRERDRVQVERDGLAEDLAALK [PRPH] ?
4.2

Any idea what protein stability index was measured for SLQLVFGIELMEVDPIGHLYIFAT [MAGEA3] ?
2.91

Any idea what protein stability index was measured for SDTPYDSSASYEKENEMMKSHVMD [IKZF1] ?
5.2

Any idea what protein stability index was measured for KFDVLRAIELFHSYRETRRKEGIV [PTPN9] ?
2.35

Any idea what protein stability index was measured for EYNYDWWEKKPFSEDVNWGYEKRN [CHGB] ?
3.17

Any idea what protein stability index was measured for KYKSFNRTAMPYGGYEKASKRMTF [MYOZ1] ?
2.34

Any idea what protein stability index was measured for VCQEVLERSRDVVDDVSVSLRLWD [RHOBTB2] ?
3.31

Any idea what protein stability index was measured for DGTSQSTGGSADLFGGFADFGSAA [CLINT1] ?
4.71

Any idea what protein stability index was measured for KSESSLPHQTSKMENLPGLASGPG ?
4.87

Any idea what protein stability index was measured for PSAAQTLRSFCAWQRGLNTPEDSD [ADAMTS4] ?
4.29

Any idea what protein stability index was measured for SCAWSLNIQANNCFSTGLSRRVLL [DCAF4] ?
3.38

Any idea what protein stability index was measured for LDPHFVPTELWPQEAVPLGLGLED [TEX19] ?
5.13

Any idea what protein stability index was measured for LGEEWSLHKIYLCQSGYFSSMFSG [GMCL1] ?
2.72

Any idea what protein stability index was measured for DFPEDGLKIFTEDLPEVESLPRDR [VPS39] ?
5.31

Any idea what protein stability index was measured for EGYRVSQALRENTYPFLAMIMLKD [FAF2] ?
2.36

Any idea what protein stability index was measured for IHAELSKLVKKHAAQRSTETALYR [FKBP8] ?
2.94

Any idea what protein stability index was measured for PFYPEVELNFISVFWPQLPNGLEA [MMP1] ?
2.61

Any idea what protein stability index was measured for PQGAVLVQREKDLPNYNWNSFGLR [KISS1] ?
3.04

Any idea what protein stability index was measured for TLEGHQRAIMAHMTVEEIYKDRQK [FLOT1] ?
4.52

Any idea what protein stability index was measured for ALARKQAQEQLRPQTPEPVEGRKH [RSPH3] ?
5.33

Any idea what protein stability index was measured for TSALFWEQHDLVYGDWTSGENSDG [CLPTM1] ?
4.17

Any idea what protein stability index was measured for EGKRKAFYTCASHVTVVILFFVPC [OR4A15] ?
2.77

Any idea what protein stability index was measured for KKTHETLSHAGQKATAAFSNVGTA [TPD52L1] ?
4.44

Any idea what protein stability index was measured for ESSSRGEAGAPGEEDIQGPTKADT [CHGB] ?
5.64

Any idea what protein stability index was measured for YFLELTQSFIIPLERYVASLMPLQ [DENND6A] ?
2.56

Any idea what protein stability index was measured for LAQRTQQDSTRTVGERLQDTHSWK [TEKT4] ?
4.42

Any idea what protein stability index was measured for QALRGLEGYTWRVAQLEDRRSTTD [ZSWIM9] ?
3.91

Any idea what protein stability index was measured for RLDLAAVTLRRGLRSRASRCRPRS [FAM189A2] ?
3.7

Any idea what protein stability index was measured for GWKSMIQSHPHLVAEAFRALASAQ [SPOPL] ?
2.4

Any idea what protein stability index was measured for LRGAKAFRLPGLSRREREPEPPAA [FCHO1] ?
4.37

Any idea what protein stability index was measured for EMQQQMSLGELCHPVPLSFEPVKS [TRIM14] ?
3.62

Any idea what protein stability index was measured for QLQALNRRFQQTQYLALPERAELA [DLX1] ?
3.05

Any idea what protein stability index was measured for DQFTQVFLESQGIELNPPEKMALD [EFHC1] ?
4.66

Any idea what protein stability index was measured for VFITYSMDTAMEVVKFVNFLLVNG [TRAF3IP2] ?
3.39

Any idea what protein stability index was measured for RSIRQYYKKGIIRKPDISQRLVYQ [SPDEF] ?
2.84

Any idea what protein stability index was measured for EAFYYIHNLVVACEIQVRTLASAG [ADD1] ?
2.93

Any idea what protein stability index was measured for RTTSVRCRGIPRGPVRPAIPPPLS [NEK8] ?
3.37

Any idea what protein stability index was measured for MEVLAAETTSQQERLQAIAEKRKR [PALM] ?
5.15

Any idea what protein stability index was measured for SEALLYALVHDHQAYAHYLLATFP [ANKRD9] ?
2.7

Any idea what protein stability index was measured for KALQEENRDLRKASVTIQARAEQE [CCDC6] ?
5.32

Any idea what protein stability index was measured for TEDLCEKPDDEVKETAHDLDVKSP [RIPK4] ?
5.8

Any idea what protein stability index was measured for PDEERPLRRPRPVQRTQSVPVRRP [RASAL3] ?
5.19

Any idea what protein stability index was measured for MDVAISNNKKWILSASKDRTMRLW [WDR88] ?
2.38

Any idea what protein stability index was measured for AEKLKAQGEYSRKLEERFMTLAAN [CCDC89] ?
3.4

Any idea what protein stability index was measured for WCGISTDMWRSENQNRAYVTLAAH [ZBED1] ?
2.37

Any idea what protein stability index was measured for KYSFLQFDPAPRRGEPHVTRRTPD [PPP2CA] ?
4.04

Any idea what protein stability index was measured for VCDSCHEAITDEERAPTATFHDSK [WDFY2] ?
5.02

Any idea what protein stability index was measured for ATGMEVGWYRPPFSRVVHLYRNGK [MOG] ?
3.12

Any idea what protein stability index was measured for AGKLRLLREMCALSFQEELLYWGI [KCNG1] ?
2.88

Any idea what protein stability index was measured for PTRCTLEAGAMTFHYIIEQGVCYL [SEC22B] ?
2.93

Any idea what protein stability index was measured for LAFVIVLLAHRLRRWHKSRLLQAS [PCDHGA10] ?
2.15

Any idea what protein stability index was measured for HYSLLTSQPLDREATSHYIIELLA [PCDHGC5] ?
2.36

# credit: the supplement of paper PMC10567573
